experimentalSystem: PTHR-delNt (human) (UniProt Q03431)
Sequence (Q03431 185-593, form in doubt): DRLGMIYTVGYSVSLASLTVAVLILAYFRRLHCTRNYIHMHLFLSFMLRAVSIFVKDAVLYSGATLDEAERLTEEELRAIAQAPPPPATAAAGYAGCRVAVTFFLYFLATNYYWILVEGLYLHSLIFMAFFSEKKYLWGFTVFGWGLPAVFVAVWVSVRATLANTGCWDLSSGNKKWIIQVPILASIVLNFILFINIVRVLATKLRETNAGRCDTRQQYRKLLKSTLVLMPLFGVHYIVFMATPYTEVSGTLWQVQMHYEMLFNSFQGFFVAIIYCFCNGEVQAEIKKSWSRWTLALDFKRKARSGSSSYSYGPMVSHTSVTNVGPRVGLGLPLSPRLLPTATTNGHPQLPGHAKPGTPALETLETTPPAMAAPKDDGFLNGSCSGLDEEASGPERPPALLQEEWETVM
test: competition binding, COS-7 membranes, 125I-[Aib1,3,M]PTH(1-15) tracer
Where no end group is shown, it is not given here.
property: fold reduction in binding affinity vs PTH(1-31)NH2 (fold)

1. SVSEIQLMHNLGKHLNSMEAVEWLRKKLQDV-NH2 [PTH(1-31)NH2 Arg^20→Ala] ... 5
2. SVSEIQLMHNLGKHLNSMERVEWARKKLQDV-NH2 [PTH(1-31)NH2 Leu^24→Ala] ... 2
3. SVSEIQLMHNLGKHLNSMERVEALRKKLQDV-NH2 [PTH(1-31)NH2 Trp^23→Ala] ... 2
4. SVSEIQLMHNLGKHLNSMEEVEWLRKKLQDV-NH2 [PTH(1-31)NH2 Arg^20→Glu] ... 4

Sourced from patent US20100081612A1
